Data credit: patent US8183243B2

assay_target: MC4R (Homo sapiens, UniProt P32245)
Construct: expressed in transfected cells; host or cells: HEK (Human Embryonic Kidney) permanent expression cell line HEK MC4R-Luc, co-expressing CRE-luciferase
Sequence (P32245 whole entry, species assumed): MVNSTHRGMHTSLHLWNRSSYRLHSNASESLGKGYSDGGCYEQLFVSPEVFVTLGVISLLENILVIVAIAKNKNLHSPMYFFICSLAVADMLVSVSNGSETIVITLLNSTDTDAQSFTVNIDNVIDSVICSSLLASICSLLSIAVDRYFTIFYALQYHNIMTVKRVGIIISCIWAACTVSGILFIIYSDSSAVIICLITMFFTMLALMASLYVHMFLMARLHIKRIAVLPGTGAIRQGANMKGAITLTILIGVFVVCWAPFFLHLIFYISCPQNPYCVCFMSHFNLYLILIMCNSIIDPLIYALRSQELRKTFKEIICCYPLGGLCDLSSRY
test_protocol: MCR agonistic activity (luciferase assay / cAMP accumulation assay) on MC4R
Assay type: cell-based
experimental_context: HEK cell lines expressing MC4R; method A (CRE-luciferase) or B (cAMP accumulation), not said which; read-out: EC50 value, agonistic activity to MC4R (range per group of Examples)
property: EC50

Sample records with EC50:
CC(=O)N([C@H]1C[C@H](C(=O)N2CCN(C)CC2)N(C(=O)[C@@H]2CN(C(C)(C)C)C[C@H]2c2ccc(F)cc2F)C1)[C@H]1CC[C@@H](C)CC1; 0.1 to 10 nM
CC(C)N1CCN(C(=O)[C@@H]2C[C@H](N(C(=O)[C@@H]3CCCO3)C3CCC(C)(C)CC3)CN2C(=O)[C@@H]2CN(C3CCSCC3)C[C@H]2c2ccc(F)cc2F)CC1; 10 to 100 nM
CN1CCN(C(=O)[C@@H]2C[C@H](N(C(=O)C(C)(C)C)c3ccc(F)cc3F)CN2C(=O)[C@@H]2CN(C(C)(C)C)C[C@H]2c2ccc(Cl)cc2)CC1; 0.1 to 10 nM
CN1CCN(C(=O)[C@@H]2C[C@H](N(C(=O)C(C)(C)CO)C3CCC(C)(C)CC3)CN2C(=O)[C@@H]2CN(C(C)(C)C)C[C@H]2c2ccc(Cl)cc2)CC1; 0.1 to 10 nM
CC(=O)N(C1CCC(C)(C)CC1)[C@H]1C[C@@H](C(=O)N2CCNCC2)N(C(=O)[C@@H]2CN(C(C)(C)C)C[C@H]2c2ccc(F)cc2F)C1; 0.1 to 10 nM
CN1CCN(C(=O)[C@@H]2C[C@H](N(C(=O)c3ccco3)c3ccc(F)cc3F)CN2C(=O)[C@@H]2CN(C(C)(C)C)C[C@H]2c2ccc(Cl)cc2)CC1; 10 to 100 nM
Cc1ccc(N2C[C@@H](C(=O)N3C[C@@H](N(C(=O)C(C)(C)C)C4CCC(C)(C)CC4)C[C@H]3C(=O)N3CCN(C)CC3)[C@H](c3ccc(Cl)cc3)C2)nn1; 10 to 100 nM
CC(=O)N(C1CCC(C)(C)CC1)[C@H]1C[C@@H](C(=O)N2CCN(C)CC2)N(C(=O)[C@@H]2CN(C(C)(C)C)C[C@H]2c2ccc(F)cc2F)C1; 10 to 100 nM
CN1CCN(C(=O)[C@@H]2C[C@H](N(C(=O)[C@@H]3CCCO3)[C@H]3CC[C@@H](C)CC3)CN2C(=O)[C@@H]2CN(c3ccc(=O)n(C)n3)C[C@H]2c2ccc(Cl)cc2)CC1; 0.1 to 10 nM
CN1CCN(C(=O)[C@H]2C[C@H](N(C(=O)[C@@H]3CCCO3)[C@H]3CC[C@@H](C)CC3)CN2C(=O)[C@@H]2CN(C3CC3)C[C@H]2c2ccc(Cl)cc2)CC1; 10 to 100 nM

Each molecule below has a recorded value; state its EC50.
1. CN1CCN(C(=O)[C@@H]2C[C@H](N(C(=O)C(C)(C)CO)C3CCC(C)(C)CC3)CN2C(=O)[C@@H]2CN(C3CCOCC3)C[C@H]2c2ccc(Cl)cc2)CC1
2. CCN1CCN(C(=O)[C@@H]2C[C@H](N(C(C)=O)C3CCC(C)(C)CC3)CN2C(=O)[C@@H]2CN(C(C)(C)C)C[C@H]2c2ccc(F)cc2F)CC1
3. CN1CCN(C(=O)[C@@H]2C[C@H](N(C(=O)[C@@H]3CCCO3)C3CCC(F)(F)CC3)CN2C(=O)[C@@H]2CN(C(C)(C)C)C[C@H]2c2ccc(Cl)cc2)CC1
4. CN1CCN(C(=O)[C@@H]2C[C@H](N(C(=O)C(C)(C)CO)[C@H]3CC[C@@H](C)CC3)CN2C(=O)[C@@H]2CN(C(C)(C)C)C[C@H]2c2ccc(F)cc2F)CC1
5. CN1CCN(C(=O)[C@@H]2C[C@H](N(C(=O)C(C)(C)C)c3ccc(F)cc3F)CN2C(=O)[C@@H]2CN(C(C)(C)C)C[C@H]2c2ccc(F)cc2F)CC1

Ans.
1: 0.1 to 10 nM; 2: 10 to 100 nM; 3: 10 to 100 nM; 4: 0.1 to 10 nM; 5: 0.1 to 10 nM
